Target or test system: hERG (KCNH2) (Homo sapiens, UniProt Q12809)
Sequence (Q12809 whole entry): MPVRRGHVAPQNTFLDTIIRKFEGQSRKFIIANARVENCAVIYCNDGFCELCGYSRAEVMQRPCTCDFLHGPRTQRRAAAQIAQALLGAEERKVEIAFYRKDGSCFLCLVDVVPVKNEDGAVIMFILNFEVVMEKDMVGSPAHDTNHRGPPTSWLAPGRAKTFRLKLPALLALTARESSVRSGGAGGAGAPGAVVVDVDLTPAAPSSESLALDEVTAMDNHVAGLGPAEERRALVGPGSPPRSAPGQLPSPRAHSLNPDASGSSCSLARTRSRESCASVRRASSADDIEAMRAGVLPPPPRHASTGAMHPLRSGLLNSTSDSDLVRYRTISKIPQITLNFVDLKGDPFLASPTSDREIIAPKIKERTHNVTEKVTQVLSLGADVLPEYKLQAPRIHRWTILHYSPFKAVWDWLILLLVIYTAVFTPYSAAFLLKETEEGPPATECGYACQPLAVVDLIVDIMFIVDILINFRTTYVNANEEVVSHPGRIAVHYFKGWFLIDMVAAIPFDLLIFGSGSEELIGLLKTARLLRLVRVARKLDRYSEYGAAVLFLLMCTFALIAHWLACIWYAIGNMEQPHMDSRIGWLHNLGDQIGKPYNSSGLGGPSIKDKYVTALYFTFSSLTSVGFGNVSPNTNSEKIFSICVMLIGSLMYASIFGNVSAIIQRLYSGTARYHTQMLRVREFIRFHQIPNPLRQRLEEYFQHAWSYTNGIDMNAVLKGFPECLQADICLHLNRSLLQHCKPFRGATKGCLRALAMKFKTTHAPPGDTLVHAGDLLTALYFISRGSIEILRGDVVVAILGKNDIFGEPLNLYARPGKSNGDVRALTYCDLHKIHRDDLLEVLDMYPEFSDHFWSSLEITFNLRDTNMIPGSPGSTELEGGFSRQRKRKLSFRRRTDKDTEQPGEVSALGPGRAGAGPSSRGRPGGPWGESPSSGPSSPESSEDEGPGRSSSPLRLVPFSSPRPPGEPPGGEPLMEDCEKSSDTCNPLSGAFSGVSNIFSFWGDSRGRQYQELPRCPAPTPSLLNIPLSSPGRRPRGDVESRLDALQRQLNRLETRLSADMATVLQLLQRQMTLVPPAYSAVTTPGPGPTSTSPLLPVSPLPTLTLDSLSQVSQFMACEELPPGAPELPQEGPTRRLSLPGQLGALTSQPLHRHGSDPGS
Assay details: Displacement of [3H]dofetilide from recombinant human ERG at 10 uM after 60 mins by scintillation counting analysis
Protocol conditions: probe [3H]dofetilide
Endpoint label: inhibition at 1 h, 10 µM
Please append the unit to your numeric answer.

Given COc1cc(-c2cncc(-c3ccc(N4CCNCC4)cc3)c2C)cc(OC)c1OC , state its recorded inhibition at 1 h, 10 µM.
69%

----------
Target or test system: TRAF2 and NCK-interacting protein kinase (Homo sapiens, UniProt Q9UKE5)
Sequence (Q9UKE5 whole entry): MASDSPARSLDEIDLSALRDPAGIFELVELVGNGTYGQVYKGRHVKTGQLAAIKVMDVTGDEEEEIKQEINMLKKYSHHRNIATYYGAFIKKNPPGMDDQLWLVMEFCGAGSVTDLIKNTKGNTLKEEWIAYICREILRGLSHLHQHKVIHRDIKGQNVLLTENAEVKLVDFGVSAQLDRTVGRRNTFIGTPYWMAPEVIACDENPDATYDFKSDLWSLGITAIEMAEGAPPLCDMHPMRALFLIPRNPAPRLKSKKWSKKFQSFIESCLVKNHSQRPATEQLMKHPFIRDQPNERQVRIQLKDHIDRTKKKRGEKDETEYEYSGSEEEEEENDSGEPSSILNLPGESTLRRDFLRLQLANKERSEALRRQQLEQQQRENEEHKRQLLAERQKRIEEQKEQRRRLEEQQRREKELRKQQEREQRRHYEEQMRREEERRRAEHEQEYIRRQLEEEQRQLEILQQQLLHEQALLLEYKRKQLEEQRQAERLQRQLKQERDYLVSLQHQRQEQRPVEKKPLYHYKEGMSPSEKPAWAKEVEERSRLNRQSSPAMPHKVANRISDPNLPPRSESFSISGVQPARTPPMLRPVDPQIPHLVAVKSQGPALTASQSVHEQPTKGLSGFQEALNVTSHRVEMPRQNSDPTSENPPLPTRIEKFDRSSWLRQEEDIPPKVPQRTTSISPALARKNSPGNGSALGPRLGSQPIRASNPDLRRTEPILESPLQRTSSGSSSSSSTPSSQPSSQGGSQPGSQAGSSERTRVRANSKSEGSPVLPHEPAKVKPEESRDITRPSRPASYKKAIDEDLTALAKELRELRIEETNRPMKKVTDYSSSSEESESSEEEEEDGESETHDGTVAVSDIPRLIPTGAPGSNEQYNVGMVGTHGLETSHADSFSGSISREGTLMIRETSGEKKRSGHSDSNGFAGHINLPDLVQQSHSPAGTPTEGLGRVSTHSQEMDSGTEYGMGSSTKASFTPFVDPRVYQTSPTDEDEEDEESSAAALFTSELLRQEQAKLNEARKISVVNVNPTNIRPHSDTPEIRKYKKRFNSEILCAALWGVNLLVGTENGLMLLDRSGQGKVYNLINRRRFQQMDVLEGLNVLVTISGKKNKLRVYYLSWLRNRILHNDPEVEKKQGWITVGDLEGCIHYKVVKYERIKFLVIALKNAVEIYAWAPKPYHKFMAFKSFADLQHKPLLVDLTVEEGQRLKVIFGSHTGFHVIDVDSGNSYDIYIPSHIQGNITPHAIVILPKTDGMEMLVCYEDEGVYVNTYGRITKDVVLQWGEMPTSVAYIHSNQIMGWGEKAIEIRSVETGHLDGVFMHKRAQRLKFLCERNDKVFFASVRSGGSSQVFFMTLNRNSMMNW
Endpoint label: IC50 (nM)
# number only, unit nM dropped from output

Quick check: IC50 on TRAF2 and NCK-interacting protein kinase (Homo sapiens, UniProt Q9UKE5), item COc1cc(-c2cncc(-c3ccc(N4CCNCC4)cc3)c2C)cc(OC)c1OC ?
96

----------
Each entry below carries its recorded fraction unbound at 4 h, 5 µM.
Assay details: Protein binding in human plasma assessed as free fraction at 5 uM after 4 hrs by rapid equilibrium dialysis
Format: ADME, cell-free
Please respond with just the number, no unit label.

# Substance smiles, fraction unbound at 4 h, 5 µM
rows = [
    ("COc1cc(-c2cncc(-c3ccc(N4CCNCC4)cc3)c2C)cc(OC)c1OC", 0.057),
]

// next entry
Given COc1cc(-c2cncc(-c3ccc(C4CCN(C)CC4)cc3)c2C)cc(OC)c1OC , state its recorded fraction unbound at 4 h, 5 µM.
0.05

----------
Target or test system: Tyrosine-protein kinase ABL1 (Homo sapiens, UniProt P00519)
Sequence (P00519 whole entry): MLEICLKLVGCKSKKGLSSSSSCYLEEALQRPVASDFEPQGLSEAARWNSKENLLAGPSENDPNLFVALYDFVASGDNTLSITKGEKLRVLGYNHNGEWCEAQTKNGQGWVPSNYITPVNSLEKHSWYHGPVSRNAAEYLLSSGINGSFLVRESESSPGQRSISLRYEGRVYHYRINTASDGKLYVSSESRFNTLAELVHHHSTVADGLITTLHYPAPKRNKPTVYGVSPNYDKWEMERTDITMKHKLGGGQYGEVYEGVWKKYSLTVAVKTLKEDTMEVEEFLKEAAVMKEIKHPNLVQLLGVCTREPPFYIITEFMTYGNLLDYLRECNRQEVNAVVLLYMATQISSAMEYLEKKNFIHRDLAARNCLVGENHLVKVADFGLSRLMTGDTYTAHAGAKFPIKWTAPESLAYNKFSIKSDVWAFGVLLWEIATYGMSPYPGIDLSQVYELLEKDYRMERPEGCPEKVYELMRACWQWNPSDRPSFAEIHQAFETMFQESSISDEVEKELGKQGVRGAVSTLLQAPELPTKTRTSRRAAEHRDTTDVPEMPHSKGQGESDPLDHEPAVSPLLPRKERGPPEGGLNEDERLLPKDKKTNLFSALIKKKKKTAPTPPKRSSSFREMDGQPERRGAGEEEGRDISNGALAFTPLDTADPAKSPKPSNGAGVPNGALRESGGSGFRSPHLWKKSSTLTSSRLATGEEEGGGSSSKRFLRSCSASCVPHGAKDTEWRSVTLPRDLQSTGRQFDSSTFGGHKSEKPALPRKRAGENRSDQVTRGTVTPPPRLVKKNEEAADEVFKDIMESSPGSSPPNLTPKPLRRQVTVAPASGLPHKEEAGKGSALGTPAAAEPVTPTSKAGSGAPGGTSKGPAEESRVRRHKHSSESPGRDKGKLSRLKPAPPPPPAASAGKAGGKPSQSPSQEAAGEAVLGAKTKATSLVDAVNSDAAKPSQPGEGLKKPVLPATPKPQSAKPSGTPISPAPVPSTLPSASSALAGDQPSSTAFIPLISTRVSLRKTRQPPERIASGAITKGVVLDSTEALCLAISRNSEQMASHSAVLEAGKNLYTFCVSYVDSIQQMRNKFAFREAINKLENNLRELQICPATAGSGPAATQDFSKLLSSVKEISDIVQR
Endpoint label: IC50

API: value(readout= IC50, system= Tyrosine-protein kinase ABL1 (Homo sapiens, UniProt P00519), query= COc1cc(-c2cncc(-c3ccc(N4CCNCC4)cc3)c2C)cc(OC)c1OC )
336 to 924 nM

----------
# fraction unbound at 4 h, 5 µM per record follows
Assay details: Protein binding in human plasma at 5 uM after 4 hrs by rapid equilibrium dialysis
Assay type: ADME, cell-free
Protocol conditions: read-out: PPB (converted)
Answer field: number only, no words.

# Substance smiles, fraction unbound at 4 h, 5 µM
records = [
    ("COc1cc(-c2cncc(-c3ccc(N4CCNCC4)cc3)c2C)cc(OC)c1OC", 0.057),
]

Now examine the next entry.
# get_value(readout='fraction unbound at 4 h, 5 µM', item= COc1cc(-c2cncc(-c3ccc(C4CCN(C)CC4)cc3)c2C)cc(OC)c1OC )
0.05

----------
Target or test system: UniProt:Q04771
Sequence (Q04771 whole entry, the tested form may be a part): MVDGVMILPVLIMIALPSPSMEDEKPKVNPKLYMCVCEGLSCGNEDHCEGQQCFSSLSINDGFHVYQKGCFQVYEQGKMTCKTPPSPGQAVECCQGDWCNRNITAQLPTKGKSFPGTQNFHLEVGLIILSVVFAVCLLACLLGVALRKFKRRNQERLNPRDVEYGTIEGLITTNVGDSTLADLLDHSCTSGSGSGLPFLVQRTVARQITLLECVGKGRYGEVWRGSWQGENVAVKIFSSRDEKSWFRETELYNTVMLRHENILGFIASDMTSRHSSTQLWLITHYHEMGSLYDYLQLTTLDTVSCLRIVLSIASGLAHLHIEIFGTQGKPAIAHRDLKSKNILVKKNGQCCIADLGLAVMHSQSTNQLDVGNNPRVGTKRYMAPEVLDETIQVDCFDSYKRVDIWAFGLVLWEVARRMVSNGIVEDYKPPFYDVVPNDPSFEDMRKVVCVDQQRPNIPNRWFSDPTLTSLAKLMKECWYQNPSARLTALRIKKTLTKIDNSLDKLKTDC
Assay details: Competitive displacement of PBI-6908 from nanoluciferase-fused ALK2 (unknown origin) expressed in HEK293 cells incubated for 2 hrs by NanoBRET NanoGlo substrate based NanoBRET assay
Format: cell-based
pIC50: −log10 of the molar value.
Classify as follows. Reported pIC50 greater than or equal to 7: true (1). Reported pIC50 below: false (0).

Some entries whose results are on file:
# Substance smiles, Classification
data = [
    ("CCc1c(-c2ccc(N3CCNCC3)cc2)cncc1-c1cc(OC)c(OC)c(OC)c1", "false (0)"),
    ("COc1cc(-c2cncc(-c3ccc(N4CCN(S(C)(=O)=O)CC4)cc3)c2C)cc(OC)c1OC", "true (1)"),
]

Is the recorded value of pIC50 equal to or greater than 7 for this molecule? COc1cc(OC)cc(-c2cncc(-c3ccc(N4CCNCC4)cc3)c2C)c1
false (0)

Has COc1cc(-c2cncc(-c3ccc(OC4CCNCC4)cc3)c2C)cc(OC)c1OC a recorded pIC50 greater than or equal to 7?
true (1)

Reported pIC50 at or above 7? COc1cc(-c2cncc(-c3ccc(N4CCNCC4)cc3)c2Cl)cc(OC)c1OC
true (1)

Check this molecule for pIC50 at or above 7: COc1cc(-c2cncc(-c3ccc(C4CCNCC4)cc3)c2C)cc(OC)c1OC
true (1)

Is the recorded value of pIC50 equal to or greater than 7 for this molecule? COc1cc(-c2cncc(-c3ccc(C4=CCNCC4)cc3)c2C)cc(OC)c1OC
true (1)

Exam item: decide whether the reported pIC50 for COc1cc(-c2cncc(-c3ccc(N4CCNCC4)cc3)c2C(F)(F)F)cc(OC)c1OC is at least 7.
false (0)
